Measured protein stability index values are reported for all entries that follow.
- Measurement Notes: protein stability index of a GFP-peptide fusion (GPS, HEK-293T) (PSI 1-6); higher = more stable;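 note: 24-mer peptide tiles fused after GFP, lentivirally expressed, FACS-sorted into six equal bins by GFP/DsRed ratio, decoded by Illumina sequencing, PSI is the read-weighted mean bin number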
- Assay Conditions: treatment: MLN4924 1 uM, 8 h; c terminus: a fixed tail appended
Recorded Endpoint: protein stability index

{"Input Sequence": "IGSTSESKDWEEVVVESMEQDRIP [MIA2]", "Recorded Endpoint": "protein stability index", "Measured": 5.11}
{"Input Sequence": "HAAHVVCRELGYVEAKSWTASSSY [LOXL2]", "Recorded Endpoint": "protein stability index", "Measured": 2.28}
{"Input Sequence": "ADKCVCGPSAPPAPTPPSLSQRVM [TIAF1]", "Recorded Endpoint": "protein stability index", "Measured": 4.42}
{"Input Sequence": "LVVADDKMAAFHGAGLKRYLLTVM [ADAMTS4]", "Recorded Endpoint": "protein stability index", "Measured": 2.35}
{"Input Sequence": "VLNTQGQKTSGQHMIQGAGSLEKA [DLC1]", "Recorded Endpoint": "protein stability index", "Measured": 4.23}
{"Input Sequence": "AQSRLEDPGADSEKSTVVEGGEVR [DLX1]", "Recorded Endpoint": "protein stability index", "Measured": 5.45}
{"Input Sequence": "EDSVFEERPERRSGPPASYCAKLC [C8orf76]", "Recorded Endpoint": "protein stability index", "Measured": 4.6}
{"Input Sequence": "IYAHRVILSACSPYFRAMFTGELA [KLHL20]", "Recorded Endpoint": "protein stability index", "Measured": 2.9}
{"Input Sequence": "NGFGLVEDSAQNCFALIPKAPKKD [EFHC1]", "Recorded Endpoint": "protein stability index", "Measured": 4.74}
{"Input Sequence": "TWLKGKFTELRLLLDEEEALAKKF [TRIM14]", "Recorded Endpoint": "protein stability index", "Measured": 2.34}
{"Input Sequence": "LALVTLLSFATRFHRLDEPPHICW [POMT2]", "Recorded Endpoint": "protein stability index", "Measured": 3.19}
{"Input Sequence": "ANTMEHLSLLDNNIPGNSTLITAV [FBXO33]", "Recorded Endpoint": "protein stability index", "Measured": 3.25}
{"Input Sequence": "LWNGDKYAATTTPFTPLHIKVKPK [TRIM39]", "Recorded Endpoint": "protein stability index", "Measured": 3.28}
{"Input Sequence": "YYSCERAKKAMGYQPLVTMDDAME [NSDHL]", "Recorded Endpoint": "protein stability index", "Measured": 3.71}
{"Input Sequence": "YFFPVIFSKASDSLQLVFGIELME [MAGEA6]", "Recorded Endpoint": "protein stability index", "Measured": 3.02}
{"Input Sequence": "TVGLLWFAHHSLFLHVRKATRAMG [TMEM175]", "Recorded Endpoint": "protein stability index", "Measured": 2.42}
{"Input Sequence": "RVGQLQEALNERHSIINALKAKLQ [LRRC45]", "Recorded Endpoint": "protein stability index", "Measured": 2.46}
{"Input Sequence": "LCCEWLRPEKHTKEQILEFLVLEQ [ZNF232]", "Recorded Endpoint": "protein stability index", "Measured": 2.24}
{"Input Sequence": "RQWTVSDWGPCSGSCGQGRTIRHV [ADAMTSL2]", "Recorded Endpoint": "protein stability index", "Measured": 2.83}
{"Input Sequence": "SSELETTSFFDSDEDDSTSRFSSS [DVL3]", "Recorded Endpoint": "protein stability index", "Measured": 5.51}
{"Input Sequence": "RRCRRCVCALCPVLGAHRGHPVGL [TRIM14]", "Recorded Endpoint": "protein stability index", "Measured": 2.59}
{"Input Sequence": "MATSELSCEVSEENCERREAFWAE [TCAP]", "Recorded Endpoint": "protein stability index", "Measured": 5.08}
{"Input Sequence": "ELPLLTPCSKAVMSQALKATFSGF [ETS2]", "Recorded Endpoint": "protein stability index", "Measured": 2.06}
{"Input Sequence": "VPQAPRRLRASFSRKPSLKGNRED [PLEKHN1]", "Recorded Endpoint": "protein stability index", "Measured": 4.83}
{"Input Sequence": "GQDKQFAWHCSESGQRLGGYRTSA [WDFY2]", "Recorded Endpoint": "protein stability index", "Measured": 3.24}
{"Input Sequence": "GTQHMFEDDPSVLYVSLHRYDHGT [HDAC6]", "Recorded Endpoint": "protein stability index", "Measured": 2.5}
{"Input Sequence": "DYAHGFGNISGEFWLGNEALHSLT [TNXB]", "Recorded Endpoint": "protein stability index", "Measured": 2.82}
{"Input Sequence": "IGGFTALHYAAMHGRARIARLMLE [ASB7]", "Recorded Endpoint": "protein stability index", "Measured": 2.31}
{"Input Sequence": "NTNNLTFLMDLPSAGRSMPEASDQ [RNF180]", "Recorded Endpoint": "protein stability index", "Measured": 4.39}
{"Input Sequence": "QLEQVIESQKANQCAVLIYTSGTT [ACSBG2]", "Recorded Endpoint": "protein stability index", "Measured": 2.51}
{"Input Sequence": "GAPLLPPPLPPPSPPGSGRGPGAS [ACBD3]", "Recorded Endpoint": "protein stability index", "Measured": 5.11}
{"Input Sequence": "SLIILHLSGATKKGTEKQTTSETQ [NETO1]", "Recorded Endpoint": "protein stability index", "Measured": 2.27}
{"Input Sequence": "LLSQEKLQEQHLSSPQGVQLDIAS [BCL2L13]", "Recorded Endpoint": "protein stability index", "Measured": 4.36}
{"Input Sequence": "SGVGIDGEVLSYLELAQFHNAHQL [RHOBTB1]", "Recorded Endpoint": "protein stability index", "Measured": 2.67}
{"Input Sequence": "YGALSSNLQPPASLQTGNHSNGPT [NOL4L]", "Recorded Endpoint": "protein stability index", "Measured": 4.44}
{"Input Sequence": "SDELSWIIELLEKDGMAFQEALDP [ELF3]", "Recorded Endpoint": "protein stability index", "Measured": 3.02}
{"Input Sequence": "ENEEMEQPMQNGEEDRPLGGGEGH [BEX3]", "Recorded Endpoint": "protein stability index", "Measured": 5.41}
{"Input Sequence": "PISVHCSAGVGRTGVFITLSIVLE [PTPRD]", "Recorded Endpoint": "protein stability index", "Measured": 2.6}
{"Input Sequence": "SALTEGAKEEGGEEVAKAVLEQEE [EPB41L3]", "Recorded Endpoint": "protein stability index", "Measured": 5.54}
{"Input Sequence": "VIVMTTRFEEGGRRKCGQYWPLEK [PTPN9]", "Recorded Endpoint": "protein stability index", "Measured": 2.47}
{"Input Sequence": "VVCAFFKQGQCTKGDKCKFSHDLT [ZC3H15]", "Recorded Endpoint": "protein stability index", "Measured": 4.1}
{"Input Sequence": "GGEYQEPGGNVKGVWAPPAPGFGE [BEX5]", "Recorded Endpoint": "protein stability index", "Measured": 4.38}
{"Input Sequence": "CERVVINVSGLRFETQMKTLAQFP [KCNA4]", "Recorded Endpoint": "protein stability index", "Measured": 2.51}
{"Input Sequence": "ISYSSMLGAVAGLALGPILRLYKH [MFSD9]", "Recorded Endpoint": "protein stability index", "Measured": 2.13}
{"Input Sequence": "AAKPAASITSKPATLTTTSATSKL [ZNF207]", "Recorded Endpoint": "protein stability index", "Measured": 4.6}
{"Input Sequence": "VCRDSVSRKGELTPLPETGYWRVR [TRIM39]", "Recorded Endpoint": "protein stability index", "Measured": 2.71}
{"Input Sequence": "WGGKAETERGLSRKHIIEGLKASL [KCNAB2]", "Recorded Endpoint": "protein stability index", "Measured": 2.02}
{"Input Sequence": "QLPPASRCVLVFEQVRFLMKSYSF [SOAT2]", "Recorded Endpoint": "protein stability index", "Measured": 1.95}
{"Input Sequence": "VAQCLRDLVAMQWADAAGEAVPEG [ZSWIM9]", "Recorded Endpoint": "protein stability index", "Measured": 3.06}
{"Input Sequence": "HDGEDVACPQGGVQYGAGVACSET [LOXL2]", "Recorded Endpoint": "protein stability index", "Measured": 5.42}
{"Input Sequence": "PPPLTSPSHGSLSHSKAPSGSQMS [NCF4]", "Recorded Endpoint": "protein stability index", "Measured": 4.92}
{"Input Sequence": "VAVDYCASENHGCEHECVNADGSY [MATN2]", "Recorded Endpoint": "protein stability index", "Measured": 5.07}
{"Input Sequence": "RDTFYKEQLERIERKNAEMYKLSS [CHCHD6]", "Recorded Endpoint": "protein stability index", "Measured": 3.79}
